Test system: A673
Assay: Hits validation, dose-response cell proliferation (CellTiter-Glo)
Type: cell-based
Conditions: Homo sapiens, A673; 12-point dose-response 50 μmol/L to 1 nmol/L, mean ± SD
Entries annotated with measured IC50

[
  {
    "Molecule": "c1coc(CNc2ncnc3[nH]cnc23)c1",
    "Qual": ">",
    "IC50 (µM)": 50
  },
  {
    "Molecule": "CC(C)c1cc(-c2n[nH]c(=O)n2-c2ccc3c(ccn3C)c2)c(O)cc1O",
    "Qual": "=",
    "IC50 (µM)": 0.04
  },
  {
    "Molecule": "CN(C)CCCN1c2ccccc2Sc2ccc(Cl)cc21",
    "Qual": "=",
    "IC50 (µM)": 10.6
  },
  {
    "Molecule": "COc1cc(NC(C)CCCN)c2ncccc2c1 (stereo not drawn)",
    "Qual": "=",
    "IC50 (µM)": 32.5
  },
  {
    "Molecule": "CN(C)CCOC(=O)COc1ccc(Cl)cc1 [Meclofenoxate]",
    "Qual": ">",
    "IC50 (µM)": 50
  },
  {
    "Molecule": "CN1CCN(CCCN2c3ccccc3Sc3ccc(C(F)(F)F)cc32)CC1",
    "Qual": "=",
    "IC50 (µM)": 15.6
  },
  {
    "Molecule": "CCC(C)(C)C(=O)O[C@H]1C[C@@H](C)C=C2C=C[C@H](C)[C@H](CC[C@@H]3C[C@@H](O)CC(=O)O3)[C@H]21",
    "Qual": "=",
    "IC50 (µM)": 0.58
  },
  {
    "Molecule": "COc1cccc2c1C(=O)c1c(O)c3c(c(O)c1C2=O)C[C@@](O)(C(C)=O)C[C@@H]3O[C@H]1C[C@H](N)[C@H](O)[C@H](C)O1",
    "Qual": "=",
    "IC50 (µM)": 0.05
  },
  {
    "Molecule": "CC(C)C[C@H](NC(=O)[C@H](Cc1ccccc1)NC(=O)c1cnccn1)B(O)O",
    "Qual": "=",
    "IC50 (µM)": 0.01
  },
  {
    "Molecule": "CC1=C(/C=C/C(C)=C/C=C/C(C)=C/C(=O)O)C(C)(C)CCC1",
    "Qual": ">",
    "IC50 (µM)": 50
  },
  {
    "Molecule": "C[n+]1cc2c3c(ccc2c2ccc4cc5c(cc4c21)OCO5)OCO3",
    "Qual": "=",
    "IC50 (µM)": 0.75
  },
  {
    "Molecule": "Nc1ccccc1NC(=O)c1ccc(CNC(=O)OCc2cccnc2)cc1",
    "Qual": "=",
    "IC50 (µM)": 2.5
  }
]

====

System: SK-ES-1
Test: In vitro high-throughput screen of FDA-approved drug library (CellTiter-Glo)
Type: cell-based
Conditions: Homo sapiens, SK-ES1; 1 μmol/L drug, 72 hours; read-out: % Inhibition SK-ES-1
Structures can show the parent of a compound that is named as a salt.

[
  {
    "Molecule": "CC[C@@]1(O)C(=O)OCc2c1cc1n(c2=O)Cc2cc3c(CN(C)C)c(O)ccc3nc2-1 [Topotecan HCl]",
    "Target Of Assay": "SK-ES-1",
    "Qual": "=",
    "inhibition at 1 µM / %": 96
  },
  {
    "Molecule": "NC(=O)N/N=C/c1ccc([N+](=O)[O-])o1 [Nitrofural/Nitrofurazone, Nitrofurazone]",
    "Target Of Assay": "SK-ES-1",
    "Qual": "=",
    "inhibition at 1 µM / %": 72
  },
  {
    "Molecule": "C[C@]12CC[C@@H]3c4ccc(O)cc4CC[C@H]3[C@@H]1CC[C@@H]2O [Estradiol]",
    "Target Of Assay": "SK-ES-1",
    "Qual": "<",
    "inhibition at 1 µM / %": 50
  },
  {
    "Molecule": "N=c1ccn2c(n1)O[C@H]1[C@H](O)[C@@H](CO)O[C@H]12 [Cyclocytidine]",
    "Target Of Assay": "SK-ES-1",
    "Qual": "=",
    "inhibition at 1 µM / %": 98
  }
]

====

Tested on: Hs 822.T.
Experiment: Hits validation, dose-response cell proliferation (CellTiter-Glo)
Assay type: cell-based
Conditions: control cell line, 12-point dose-response, mean ± SD
pIC50: −log10 of the molar value.
Mark yes (1) for reported pIC50 of 6 or greater; mark no (0) for anything smaller.

[
  {
    "Compound": "CC(C)c1cc(-c2n[nH]c(=O)n2-c2ccc3c(ccn3C)c2)c(O)cc1O [ganetespib]",
    "Class Label": "no (0)"
  },
  {
    "Compound": "COc1ccc(C[C@H]2NC[C@H](O)[C@H]2OC(C)=O)cc1 [Anisomycin]",
    "Class Label": "yes (1)"
  },
  {
    "Compound": "CN(NC(=O)CC(=O)NN(C)C(=S)c1ccccc1)C(=S)c1ccccc1 [Elesclomol]",
    "Class Label": "no (0)"
  },
  {
    "Compound": "CN(C)CCCN1c2ccccc2Sc2ccc(Cl)cc21 [Chlorpromazine]",
    "Class Label": "no (0)"
  },
  {
    "Compound": "CC1=C(/C=C/C(C)=C/C=C/C(C)=C/C(=O)O)C(C)(C)CCC1 [Tretinoin]",
    "Class Label": "no (0)"
  },
  {
    "Compound": "COC1=C2C[C@@H](C)C[C@H](OC)[C@H](O)[C@@H](C)/C=C(\\C)[C@H](OC(N)=O)[C@@H](OC)/C=C\\C=C(/C)C(=O)NC(=CC1=O)C2=O [Geldanamycin]",
    "Class Label": "no (0)"
  },
  {
    "Compound": "COc1c2ccoc2nc2c(OC)c(OCC(O)C(C)(C)O)ccc12 (centres unmarked) [Evoxine]",
    "Class Label": "no (0)"
  },
  {
    "Compound": "Nc1ccccc1NC(=O)c1ccc(CNC(=O)OCc2cccnc2)cc1 [MS275]",
    "Class Label": "no (0)"
  },
  {
    "Compound": "CC1=CC(=O)c2ccccc2C1=O [Menadione]",
    "Class Label": "no (0)"
  },
  {
    "Compound": "C[n+]1cc2c3c(ccc2c2ccc4cc5c(cc4c21)OCO5)OCO3 [Sanguinarine]",
    "Class Label": "no (0)"
  },
  {
    "Compound": "CC(=O)[C@H]1CC[C@H]2[C@@H]3CCC4=CC(=O)CC[C@]4(C)[C@H]3CC[C@]12C [Progesterone]",
    "Class Label": "no (0)"
  },
  {
    "Compound": "CCNC(=O)c1noc(-c2cc(C(C)C)c(O)cc2O)c1-c1ccc(CN2CCOCC2)cc1 [AUY922]",
    "Class Label": "no (0)"
  },
  {
    "Compound": "OCCN1CCN(CCCN2c3ccccc3Sc3ccc(C(F)(F)F)cc32)CC1 [Fluphenzaine]",
    "Class Label": "no (0)"
  },
  {
    "Compound": "O=C(O)CCC(=O)c1ccc(-c2ccccc2)cc1 [Fenbufen]",
    "Class Label": "no (0)"
  },
  {
    "Compound": "CN1CCN(CCCN2c3ccccc3Sc3ccc(C(F)(F)F)cc32)CC1 [Trifluoperazine]",
    "Class Label": "no (0)"
  },
  {
    "Compound": "c1coc(CNc2ncnc3[nH]cnc23)c1 [Kinetin]",
    "Class Label": "no (0)"
  },
  {
    "Compound": "CC[C@]1(O)C[C@@H]2CN(CCc3c([nH]c4ccccc34)[C@@](C(=O)OC)(c3cc4c(cc3OC)N(C)[C@H]3[C@@](O)(C(N)=O)[C@H](O)[C@]5(CC)C=CCN6CC[C@]43[C@@H]65)C2)C1 [Vindesine]",
    "Class Label": "yes (1)"
  },
  {
    "Compound": "COc1ccc(C[C@H](N)C(=O)N[C@H]2[C@@H](O)[C@H](n3cnc4c(N(C)C)ncnc43)O[C@@H]2CO)cc1 [Puromycin]",
    "Class Label": "yes (1)"
  },
  {
    "Compound": "CN1C[C@H](CO)C=C2c3cccc4[nH]cc(c34)C[C@H]21 [Lysergol]",
    "Class Label": "no (0)"
  }
]

====

Test system: TC-71
Assay: Hits validation, dose-response cell proliferation (CellTiter-Glo)
Format: cell-based
Details: 12-point dose-response 50 μmol/L to 1 nmol/L, mean ± SD
Attribute Measured: IC50 (nM)

[
  {
    "Structure As Smiles": "COc1ccc(C[C@H]2NC[C@H](O)[C@H]2OC(C)=O)cc1",
    "Qual": "=",
    "Observed Result": 40
  },
  {
    "Structure As Smiles": "OCCN1CCN(CCCN2c3ccccc3Sc3ccc(C(F)(F)F)cc32)CC1",
    "Qual": "=",
    "Observed Result": 17000
  },
  {
    "Structure As Smiles": "CN1C[C@H](CO)C=C2c3cccc4[nH]cc(c34)C[C@H]21",
    "Qual": ">",
    "Observed Result": 50000
  },
  {
    "Structure As Smiles": "CC(=O)OC[C@H]1O[C@@H]([S-])[C@H](OC(C)=O)[C@@H](OC(C)=O)[C@@H]1OC(C)=O.CCP(CC)CC.[Au+]",
    "Qual": "=",
    "Observed Result": 260
  }
]
